Data provenance: the supplement of paper PMC10567573

B1: TSN (parent)
chain: FLAAEQDIREEIRKVVQSLEQTAR

# Variants of: B1
# protocol_notes: protein stability index of a GFP-peptide fusion (GPS, HEK-293T) (PSI 1-6); higher = more stable;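 also: lentivirally expressed fusions sorted by FACS into six bins by GFP to DsRed ratio, PSI derived from sequencing read proportions per bin multiplied by bin number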
# study_conditions: c terminus: a fixed tail appended
# binarize protein stability index: threshold 2 inclusive, high side Yes, low side No

Here are 5 variants together with their reported answers.
Record `L19Y` ; criterion: protein stability index no lower than 2. Met?
Yes

Could you do the same for `E5H` , please?
Yes

Could you do the same for `I12Y` , please?
Yes

Could you do the same for `K14D` , please?
Yes

Could you do the same for `L19T` , please?
Yes

***
Record `I8P` ; criterion: protein stability index no lower than 2. Met?
Yes

Could you do the same for `V16C` , please?
Yes

Could you do the same for `V16E` , please?
Yes

Could you do the same for `A3S` , please?
Yes

Could you do the same for `Q21S` , please?
No

Could you do the same for `A23R` , please?
No

Could you do the same for `V16P` , please?
Yes

Could you do the same for `I8H` , please?
Yes

Could you do the same for `Q17M` , please?
Yes

Could you do the same for `E5F` , please?
Yes

Could you do the same for `V16F` , please?
Yes

Could you do the same for `S18C` , please?
Yes

Could you do the same for `E10W` , please?
Yes

Could you do the same for `R9S` , please?
Yes

Could you do the same for `K14T` , please?
Yes

Could you do the same for `K14M` , please?
Yes
